# Experiment Summary: Mouse PK test: plasma concentration after intravenous or oral administration
# Assay type: in vivo, mice (C57BL/6J)
# Cond: C57BL/6J, in vivo, male mice, intravenous administration, 1 mg/kg, read-out: CL
Starred links: 1 amine or outer side, 2 acyl side, 3 side chain; linkers in the order of their positions; H or OH if unused. Non-standard residues stand in square brackets, D forms with d. Residues, ends and D or L forms follow the SMILES beside them. *: point of attachment. NMedβ3hAla = C[C@H](CC(=O)[*:2])N(C)[*:1]; NMeF = CN[C@@H](Cc1ccccc1)C(=O)O; NMeI = CC[C@H](C)[C@H](NC)C(=O)O; hPhe = N[C@@H](CCc1ccccc1)C(=O)O; NMeβAla = CN(CCC(=O)[*:2])[*:1]; NMeL = CN[C@@H](CC(C)C)C(=O)O; Abu = CC[C@H](N)C(=O)O; Sar = CNCC(=O)O; tBu = CC(C)(C)*

| Compound | clearance (mL/min/kg) |
| --- | --- |
| CC[C@@H]1NC(=O)[C@H](CC(C)C)N(C)C(=O)[C@H](COC(C)(C)C)NC(=O)[C@H]([C@@H](C)CC)N(C)C(=O)[C@H](CCc2ccccc2)NC(=O)[C@H](Cc2ccccc2)N(C)C(=O)[C@H](C(C)C)NC(=O)[C@H](CC(C)C)N(C)C(=O)[C@H](CC(C)C)NC(=O)CCN(C)C(=O)C[C@@H](C)N(C)C(=O)CN(C)C(=O)[C@H](CC(C)C)N(C)C(=O)[C@@H]2CCCN2C1=O [pd065] (cyclo([Abu]P[NMeL][Sar][NMedβ3hAla][NMeβAla]L[NMeL]V[NMeF][hPhe][NMeI]S(tBu)[NMeL])) | 1.9 |
